study-target: T1, human OT7T175 (metastin receptor) (human, UniProt Q969F8 1-398)
T1 construct: expressed on CHO cells (hOT7T175-expressed CHO cells; hOT7T175/CHO); also called hOT7T175; h0T7T175
T1 sequence (Q969F8 whole entry L364H): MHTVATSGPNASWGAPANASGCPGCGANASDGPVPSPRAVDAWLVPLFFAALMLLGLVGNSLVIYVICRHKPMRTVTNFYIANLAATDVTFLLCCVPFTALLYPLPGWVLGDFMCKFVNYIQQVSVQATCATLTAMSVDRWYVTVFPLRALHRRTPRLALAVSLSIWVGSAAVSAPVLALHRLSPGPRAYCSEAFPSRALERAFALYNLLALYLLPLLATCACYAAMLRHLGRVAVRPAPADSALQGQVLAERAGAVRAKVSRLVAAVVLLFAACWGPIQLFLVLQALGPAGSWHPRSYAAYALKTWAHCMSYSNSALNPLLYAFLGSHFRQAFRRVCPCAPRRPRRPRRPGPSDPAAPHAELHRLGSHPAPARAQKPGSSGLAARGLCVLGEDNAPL
test-details: FMAT competition with Cy-5-labeled metastin (40-54), hOT7T175-expressed CHO cells
Square brackets hold non-standard residues; d marks the D form. Ends that are not written are not given here. * marks the point of attachment. Phe(3,4-F2) = N[C@@H](Cc1ccc(F)c(F)c1)C(=O)O; Phe(4-F) = N[C@@H](Cc1ccc(F)cc1)C(=O)O; 2Nal = N[C@@H](Cc1ccc2ccccc2c1)C(=O)O; Cyclohexanecarbonyl = O=C(C1CCCCC1)*; Arg(Me) = CNC(=N)NCCC[C@H](N)C(=O)O; 4Pal = N[C@@H](Cc1ccncc1)C(=O)O; d4Pal = N[C@H](Cc1ccncc1)C(=O)O; Cha = N[C@@H](CC1CCCCC1)C(=O)O; Abu = CC[C@H](N)C(=O)O; azaGly = NNC(=O)O
measurement-name: log10 IC50 (log10 of the value in nM)
// units: nM (pre-log); metric: IC50; scale: log10

Previously resolved entries follow.
[[record]]
binder = "[dY]N[dW]NSF[azaGly]LR(Me)F-NH2 [Compound No. 236: (D-Tyr1,D-Trp3,AzaGly7,Arg(Me)9]MS10]"
value = 1.62

[[record]]
binder = "YNWNSFGL[Arg(Me)]F-NH2 [Compound No. 82: [Arg(Me)9]MS10]"
value = 0.61

[[record]]
binder = "[d4Pal][dN][Cha]NSF[azaGly]L[Arg(Me)]F-NH2 (N-terminus assumed; SMILES CNC(=N)NCCC[C@H](NC(=O)[C@H](CC(C)C)NC(=O)NNC(=O)[C@H](Cc1ccccc1)NC(=O)[C@H](CO)NC(=O)[C@H](CC(N)=O)NC(=O)[C@H](CC1CCCCC1)NC(=O)[C@@H](CC(N)=O)NC(=O)[C@H](N)Cc1ccncc1)C(=O)N[C@@H](Cc1ccccc1)C(N)=O) [Compound No. 306: [D-Pya(4)1,D-Asn2,Cha3,AzaGly7,Arg(Me)9]MS10]"
value = 0.64

[[record]]
binder = "YNWNSFGLR[Phe(3,4-F2)]-NH2 [Compound No. 198: [Phe(3,4F2)10]MS10]"
value = 2.23

[[record]]
binder = "[dY]TNSF[azaGly]L[Arg(Me)]F-NH2 [Compound No. 241: des(1)-[D-Tyr2,Thr3,AzaGly7,Arg(Me)9]MS10]"
value = 1.75


Ask | // returns reported log10 IC50 for input DNWNSFGLRF-NH2 [Compound No. 75: [Asp1]MS10]
Reply | 2.94

Ask | Query (binder): YNWNSFGLR[Phe(4-F)]-NH2 [Compound No. 61: [Phe(4F)10]MS10] ; field requested: log10 IC50
Reply | 1.11

Ask | Report log10 IC50 for YNWNSFGLRX (Pya(3)10; C-terminal amide) [Compound No. 60: [Pya(3)10]MS10] please.
Reply | 2.23

Ask | Need log10 IC50, item YNANSFGLRF-NH2 [Compound No. 67: [Ala3]MS10]
Reply | 1.43

Ask | Entry [dY][dN][4Pal]NSF[azaGly]L[Arg(Me)]F-NH2 [Compound No. 303: [D-Tyr1,D-Asn2,Pya(4) 3,AzaGly7,Arg(Me)9]MS10] has what log10 IC50?
Reply | -0.30

Ask | Quick one: log10 IC50 for [dY]NWTSFGL[Arg(Me)]F-NH2 [Compound No. 208: [D-Tyr1,Thr4,Arg(Me)9]MS10] ?
Reply | 2.92

Ask | Query (binder): [dY]WNSF[azaGly]L[Arg(Me)]F-NH2 [Compound No. 222: des(1)-[D-Tyr2,AzaGly7,Arg(Me)9]MS10] ; field requested: log10 IC50
Reply | 1.52

Ask | For the binder [dY]TWNSFGL[Arg(Me)]F-NH2 (N-terminus assumed; SMILES CNC(=N)NCCC[C@H](NC(=O)[C@H](CC(C)C)NC(=O)CNC(=O)[C@H](Cc1ccccc1)NC(=O)[C@H](CO)NC(=O)[C@H](CC(N)=O)NC(=O)[C@H](Cc1c[nH]c2ccccc12)NC(=O)[C@@H](NC(=O)[C@H](N)Cc1ccc(O)cc1)[C@@H](C)O)C(=O)N[C@@H](Cc1ccccc1)C(N)=O) [Compound No. 215: [D-Tyr1,Thr2,Arg(Me)9]MS10] , what log10 IC50 is on record?
Reply | 2.40

Ask | Need log10 IC50 of [dY][2Nal]NSF[azaGly]L[Arg(Me)]F-NH2 [Compound No. 255: des(1)-[D-Tyr2,Nal(2) 3,AzaGly7,Arg(Me)9]MS10] , thanks.
Reply | 1.52

Ask | Sample [dY]N[dA]NSF[azaGly]L[Arg(Me)]F-NH2 [Compound No. 252: [D-Tyr1,D-Ala3,AzaGly7,Arg(Me)9]MS10] — what was its log10 IC50?
Reply | 2.76

Ask | Value lookup for log10 IC50; key = [dY]NWNAFGL[Arg(Me)]F-NH2 (N-terminus assumed; SMILES CNC(=N)NCCC[C@H](NC(=O)[C@H](CC(C)C)NC(=O)CNC(=O)[C@H](Cc1ccccc1)NC(=O)[C@H](C)NC(=O)[C@H](CC(N)=O)NC(=O)[C@H](Cc1c[nH]c2ccccc12)NC(=O)[C@H](CC(N)=O)NC(=O)[C@H](N)Cc1ccc(O)cc1)C(=O)N[C@@H](Cc1ccccc1)C(N)=O) [Compound No. 212: [D-Tyr1,Ala5,Arg(Me)9]MS10]
Reply | 1.56

Ask | Given the binder YNWNSFG[Abu]RF-NH2 (N-terminus assumed; SMILES CC[C@H](NC(=O)CNC(=O)[C@H](Cc1ccccc1)NC(=O)[C@H](CO)NC(=O)[C@H](CC(N)=O)NC(=O)[C@H](Cc1c[nH]c2ccccc12)NC(=O)[C@H](CC(N)=O)NC(=O)[C@@H](N)Cc1ccc(O)cc1)C(=O)N[C@@H](CCCNC(=N)N)C(=O)N[C@@H](Cc1ccccc1)C(N)=O) [Compound No. 187: [Abu8]MS10] , what is its reported log10 IC50?
Reply | 2.86

Ask | Would you kindly share the measured log10 IC50 for Cyclohexanecarbonyl-NSF[azaGly]L[Arg(Me)]F-NH2 (SMILES CNC(=N)NCCC[C@H](NC(=O)[C@H](CC(C)C)NC(=O)NNC(=O)[C@H](Cc1ccccc1)NC(=O)[C@H](CO)NC(=O)[C@H](CC(N)=O)NC(=O)C1CCCCC1)C(=O)N[C@@H](Cc1ccccc1)C(N)=O) [Compound No. 278: des(1-3)-Cyclohexanecarbonyl-[AzaGly7, Arg(Me)9]MS10] ?
Reply | 2.04
